System: NIH3T3
assay_method_text: Cytotoxic Profiling of Annotated Libraries Using Quantitative High-Throughput Screening (AID 1296008); note: nearly all actives have a fitted effect of over 60% in size
experimental_setup: Five cell lines viability, CellTiter-Glo ATP luminescence, 48-72 h
Inconclusive results are not listed. Calls of active or inactive are those of the source. Calls come from the whole dose curve; as a rule, active = well fitted inhibition curve with a large enough effect; inconclusive = small, poorly fitted or top-dose-only effect; inactive = flat fitted curve, though single readings scatter.
Possible outcomes: 1.0 (active), 0.0 (inactive)

INSERT INTO assay_data (compound, assigned_label) VALUES
  ('CC(C)[C@]12O[C@H]1[C@@H]1O[C@]13[C@]1(O[C@H]1C[C@H]1C4=C(CC[C@@]13C)C(=O)OC4)[C@@H]2O', 1.0),
  ('O=[N+]([O-])c1c(Cl)c(Cl)cc(Cl)c1Cl', 0.0),
  ('CC(=O)Nc1ccc(OC[C@](C)(O)C(=O)Nc2ccc([N+](=O)[O-])c(C(F)(F)F)c2)cc1', 0.0),
  ('O=C(Oc1ccc([N+](=O)[O-])cc1)N1CCN(Cc2cccc(Oc3ccccc3)c2)CC1', 0.0),
  ('CCN(CC)C(=O)c1ccc(C2=CC3(CCNCC3)Oc3cccc(O)c32)cc1', 0.0),
  ('C[C@@H]1O[C@@H](O[C@@H]2C=C3CC[C@@H]4[C@@H](CC[C@]5(C)[C@H](c6ccc(=O)oc6)CC[C@@]45O)[C@@]3(C)CC2)[C@H](O)[C@H](O)[C@H]1O', 1.0),
  ('CC(C)(O)C=CC(=O)[C@](C)(O)[C@H]1[C@H](O)C[C@]2(C)[C@@H]3CC=C4[C@@H](C=C(O)C(=O)C4(C)C)[C@]3(C)C(=O)C[C@@]12C', 1.0),
  ('CC(C)(C)[C@]1(O)C[C@@H]2OC(=O)C[C@@]23C(=O)O[C@@H]2OC(=O)[C@H](O)C213 (stereo not given in full)', 0.0),
  ('COC1=CC(C)=C[C@@H](C)[C@@H](O)[C@@H](C)CC(C)=CC=C[C@H](OC)[C@H]([C@@H](C)[C@@H](O)[C@H](C)[C@@]2(O)C[C@@H](O)[C@H](C)[C@@H](C(C)C)O2)OC1=O', 1.0),
  ('O=C(Nc1ccncc1)C(=O)c1cn(Cc2ccc(Cl)cc2)c2ccccc12', 1.0);

###

# Lookup of reported max response keyed by entry
study_system: Peroxisome proliferator-activated receptor alpha (Homo sapiens) (UniProt Q07869)
Sequence (Q07869 whole entry, looked up): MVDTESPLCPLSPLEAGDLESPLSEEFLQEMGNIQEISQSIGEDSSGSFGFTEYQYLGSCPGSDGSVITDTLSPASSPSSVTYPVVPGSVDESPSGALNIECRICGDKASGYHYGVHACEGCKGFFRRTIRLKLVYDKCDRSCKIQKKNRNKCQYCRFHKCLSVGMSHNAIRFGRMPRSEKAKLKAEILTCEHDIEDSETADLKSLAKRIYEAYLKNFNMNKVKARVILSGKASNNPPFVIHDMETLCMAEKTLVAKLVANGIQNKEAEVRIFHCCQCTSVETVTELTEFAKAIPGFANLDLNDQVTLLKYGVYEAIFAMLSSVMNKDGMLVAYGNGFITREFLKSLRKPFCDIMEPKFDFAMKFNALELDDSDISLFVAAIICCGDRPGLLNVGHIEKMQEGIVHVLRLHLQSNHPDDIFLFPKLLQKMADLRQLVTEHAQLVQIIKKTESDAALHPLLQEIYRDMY
assay_method_text: qHTS assay for small molecule agonists of the peroxisome proliferator-activated receptor alpha (PPARalpha) signaling pathway (AID 651778); note: % of control where 0% means no effect
experimental_setup: PathHunter PPARalpha complementation, chemiluminescence, 6 h; stronger effect = higher value
observable: max response (%)

INSERT INTO measurements (compound, recorded_number) VALUES
  ('Clc1cnc(Oc2ccc(Oc3ncc(Cl)cc3Cl)cc2)c(Cl)c1', 2.8),
  ('ClC1=C(Cl)[C@]2(Cl)[C@@H]3[C@@H]4C[C@@H]([C@H]5O[C@@H]45)[C@@H]3[C@@]1(Cl)C2(Cl)Cl', 12.3),
  ('Nc1ccc(N=Nc2ccccc2)cc1', -2.06),
  ('CC(C)(C)C(O)C(Oc1ccc(Cl)cc1)n1cncn1 (stereo unspecified)', -0.528),
  ('COc1nn(CSP(=S)(OC)OC)c(=O)s1', -1.93),
  ('CCOCCOC(C)=O', 0.307),
  ('O=C(O)CCCOc1ccc(Cl)cc1Cl', 5.21),
  ('C=CCC1=C(C)C(OC(=O)C2C(C=C(C)C)C2(C)C)CC1=O (stereo unspecified)', 4.18),
  ('Nc1c(Cl)c(Cl)c(Cl)c(Cl)c1Cl', -0.704),
  ('Nc1ccc(Cl)cc1', 8.91),
  ('CC(C)(O)C(=O)Nc1ccc([N+](=O)[O-])c(C(F)(F)F)c1', -1.76),
  ('O=[N+]([O-])c1c2ccccc2cc2ccccc12', 5.89),
  ('CCCN(CCC)c1c([N+](=O)[O-])cc(S(N)(=O)=O)cc1[N+](=O)[O-]', 9.4),
  ('O=[N+]([O-])c1cc([N+](=O)[O-])c2ccccc2c1', -4.32),
  ('O=[N+]([O-])c1c(Cl)c(Cl)cc(Cl)c1Cl', 0.293),
  ('CCO/N=C(\CC)C1=C(O)CC(c2c(C)cc(C)cc2C)CC1=O (stereo unspecified)', -0.461);

###

assay_method_text: qHTS Assay for Lipid Storage Modulators (AID 1519)
experimental_setup: Drosophila S3 cells, BODIPY lipid droplet/cell ratio, laser cytometry; measured here: cell count channel max response; cells loaded with oleic acid
Inconclusive results are not listed.
observable: max response (%)

INSERT INTO results (molecule, observable, value_units, recorded_number) VALUES
  ('O=C(O)Cc1cnc[nH]1', 'max response', '%', 21.8),
  ('NC1CCc2cc(O)c(O)cc2C1 (configuration not stated)', 'max response', '%', -18.2),
  ('C#CC1(O)CCC2C3CCC4=CC(=O)CCC4(C)C3CCC21C (configuration not stated)', 'max response', '%', 10.4),
  ('CN[C@@H](C)[C@H](O)c1ccccc1', 'max response', '%', -49.5),
  ('COC(=O)[C@@H](N)CCCN=C(N)N[N+](=O)[O-]', 'max response', '%', -4.51),
  ('C#CCOC(=O)C1=CCCN(C)C1', 'max response', '%', 13.4),
  ('CN1C2CCC1CC(OC(=O)c1cc(Cl)cc(Cl)c1)C2 (configuration not stated)', 'max response', '%', -22.1),
  ('NCCc1c[nH]c2ccccc12', 'max response', '%', 8.58),
  ('CS(=N)(=O)CC[C@H](N)C(=O)O (some centres not stated)', 'max response', '%', 43.8),
  ('Cc1cc(O)ccc1Cl', 'max response', '%', -7.09),
  ('C[C@@H](N)Cc1cnc[nH]1', 'max response', '%', -2.18),
  ('CCC(=O)OC1CCC2C3CCC4=CC(=O)CC[C@@]4(C)C3CC[C@]12C (some centres not stated)', 'max response', '%', 4.67),
  ('NC(CCP(=O)(O)O)C(=O)O (configuration not stated)', 'max response', '%', 14.5),
  ('O=c1cccc2n1CC1CNC[C@H]2C1', 'max response', '%', -1.29),
  ('C[N+]1(C)C2CCC1CC(OC(=O)C(CO)c1ccccc1)C2 (configuration not stated)', 'max response', '%', -18.3),
  ('S=C(NC1CCCCC1)N1CCC(c2cnc[nH]2)CC1', 'max response', '%', 8.5),
  ('O=C(O)[C@@H]1CCN1', 'max response', '%', -13.5);

###

assay_method_text: qHTS of pediatric cancer cell lines to identify multiple opportunities for drug repurposing: Primary screen for NB-EBc1 cells (AID 1347095); note: potency is the fitted concentration of half-maximal effect
experimental_setup: NB-EBc1 neuroblastoma viability, CellTiter-Glo luminescence, 48 h; series mostly up to 46 µM
Inconclusive results are not listed. The source made the active and inactive calls. The call rests on the fitted dose curve; in most records, active means well fitted cell-killing curve with a large enough effect; inconclusive means small, poorly fitted or top-dose-only effect; inactive means no such curve, though single readings can be large or run the other way.
observable: Potency

INSERT INTO measurements (compound, observable, result) VALUES
  ('c1ccc2c(CN3CCNCC3)cccc2c1', 'Potency', 'inactive'),
  ('CC[C@H]1C=CC=CC[C@@H](C)[C@H](O)[C@@](C)(O)C(=O)[C@@H](C)[C@H](O)[C@@H](C)C(=O)[C@@H](C)[C@H](O)[C@@H](C)C=CC(=O)O[C@@H]2[C@@H](C)[C@H](CC1)O[C@]1(CC[C@H](C)[C@H](C[C@@H](C)O)O1)[C@H]2C', 'Potency', '0.0132 µM (active)'),
  ('COc1ccc(C(c2ccc(OC)cc2)C(Cl)(Cl)Cl)cc1', 'Potency', '13.5 µM (active)'),
  ('O=C(Oc1ccc([N+](=O)[O-])cc1)N1CCN(Cc2cccc(Oc3ccccc3)c2)CC1', 'Potency', 'inactive'),
  ('C=CCON=C(C[C@H]1O[C@@H]2O[C@]3(C)CC[C@@H]4[C@H](C)CC[C@@H]([C@H]1C)[C@@]24OO3)[C@H]1O[C@@H]2O[C@]3(C)CC[C@H]4[C@H](C)CC[C@@H]([C@@H]1C)[C@@]24OO3', 'Potency', '0.372 µM (active)'),
  ('CC(N[C@H]1C[C@H]1c1ccccc1)c1ccc2c(c1)OCCO2 (stereo partly specified)', 'Potency', 'inactive'),
  ('CCCN(CCC)c1c([N+](=O)[O-])cc(S(N)(=O)=O)cc1[N+](=O)[O-]', 'Potency', '30.6 µM (active)'),
  ('C=C[C@@H]1CN2CCC1C[C@H]2[C@H](O)c1ccnc2ccccc12 (stereo partly specified)', 'Potency', 'inactive'),
  ('O=c1[nH]c2ccccc2n1C1CCN(Cc2ccc(-c3[nH]c4cc5ncnc5cc4nc3-c3ccccc3)cc2)CC1', 'Potency', '20.9 µM (active)'),
  ('CCN1CCN(C(=O)Cc2ccc(Nc3ncc(F)c(Nc4ccc(C(=O)Nc5ccccc5Cl)cc4)n3)cc2)CC1', 'Potency', '5.26 µM (active)'),
  ('O=S(=O)(F)Cc1ccccc1', 'Potency', 'inactive'),
  ('CCc1c(C(=O)C(N)=O)c2c(OCC(=O)O)cccc2n1Cc1ccccc1', 'Potency', 'inactive'),
  ('CC(=O)N(C)c1cccc(-c2ccnc3c(C(=O)c4cccs4)cnn23)c1', 'Potency', 'inactive'),
  ('CCC(=O)O[C@@H]1C=C2CCC3C(CCC4(C)C3CC[C@@H]4OC(=O)CC)C2CC1 (stereo partly specified)', 'Potency', 'inactive'),
  ('CC[N+]1(CCOC(=O)C(O)(c2ccccc2)c2ccccc2)CCCCC1', 'Potency', 'inactive'),
  ('CO[C@H]1CCC(O[C@H]2C[C@H]([C@]3(C)CC[C@]4(C[C@H](O)[C@@H](C)[C@@H]([C@@H](C)C=C(C)C(=O)[C@H](C)C[C@H](C)C(=O)O)O4)O3)O[C@]3(O[C@@H]([C@H]4O[C@@](O)(CO)[C@H](C)C[C@H]4C)C[C@H]3C)[C@H]2C)O[C@H]1C (stereo partly specified)', 'Potency', '0.209 µM (active)');
